Test target: UniProtKB P28647
Sequence (P28647 whole entry): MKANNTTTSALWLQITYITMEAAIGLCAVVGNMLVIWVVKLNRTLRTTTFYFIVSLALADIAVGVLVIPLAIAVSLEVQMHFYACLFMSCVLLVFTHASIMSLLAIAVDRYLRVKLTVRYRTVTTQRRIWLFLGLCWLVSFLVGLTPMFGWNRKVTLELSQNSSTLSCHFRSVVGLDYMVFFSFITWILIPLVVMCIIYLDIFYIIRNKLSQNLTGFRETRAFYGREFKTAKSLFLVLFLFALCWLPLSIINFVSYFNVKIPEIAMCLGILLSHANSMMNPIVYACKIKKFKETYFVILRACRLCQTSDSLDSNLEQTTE
Measurement protocol: Rat adenosine A3 receptor binding assay
Assay context: radioligand 125I AB-MECA, rat recombinant EBNA cells

| Molecule | Kd (nM) |
| --- | --- |
| CNC(=O)[C@H]1O[C@@H](n2cnc3c(NCc4ccc(N)cc4)ncnc32)[C@H](O)[C@@H]1O [AB-MECA] | 1.3 |
